test system: K4 kissing-loop RNA reporter; assay: apparent KD of K4 kissing-loop reporter; higher = weaker reporter binding; details: Eterna round: R107; input ligand: arginine 13.2 mM;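 note: bound reporter read as fluorescence of individual clusters on recovered sequencing chips by microscopy, with normalized cluster intensities fitted with a binding model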
Listed below: apparent KD of K4 kissing-loop reporter values for each entry.
Quantity: apparent KD of K4 kissing-loop reporter (nM)

Seq String	Endpoint Unit	Observed Value
UGAUACCAGACGGCCGCCACUCCCGCAGGUCAAAGACCUGCGAAGAAGGUUCUUCAGUGAUGUUGGAGGACCGGGUCUGGUAUCU [FiskerMod 22 - Jieux - Exclusion - Tryptophan B]	nM	168
AAAAUAAACCAGUGAUGUUGGUGUCCGGAUACCAGCGAUAAUCAUCGCCCUUGGCAGCCGCGGACGUACAAAAUAAGUACGUCCU [MatMod 13 - Jieux - Same State - Theophylline A]	nM	271
AUUAAUAUCACGGCCGCCACUGAAUAUUGUUUUUAUAUUUAGAAAUCUUGCCAGUGAUGUUGGAUCAGGACCGGGUGAGUUUAUA [JR_SSTryptoB_Sub006]	nM	439
GCCAGUGCGCGAAGGAGCGCCGUGACAGGUUACUGCCUUGGGCAGUGAUGUUGCUCAAUCUGGCAGGUAGGUCGCGUGCACUGGC	nM	184
ACGCGCGUGCGCUGGAAAGCGCACGCGCGUCGAGGACCGGUACGGCCGCCACUCGCUCGCGCCGAGUGAUGUUCGGCCGGCGAAC [#2 SameState - Tryptophan_A Attempt #2 (HarryS)]	nM	288
